Below, each entry is listed alongside its reported λmax flu (maximum fluorescence wavelength).
experiment: Measurement of maximum absorption wavelength, maximum fluorescence wavelength and fluorescence quantum yield in solvents; format: physicochemical; conditions: in Bu2O (dibutyl ether)
Report field: quantity (unit follows the number).

{"compound-string": "CCN(CC)c1ccc2cc3cc(-c4nc5ccccc5[nH]4)c(=O)oc3cc2c1", "assay-result": "523 nm"}
{"compound-string": "CCN(CC)c1ccc2cc3cc(-c4nc5ccccc5n4C)c(=O)oc3cc2c1", "assay-result": "512 nm"}
{"compound-string": "CCN(CC)c1ccc2cc3cc(-c4nc5ccccc5s4)c(=O)oc3cc2c1", "assay-result": "538 nm"}

Here is the next item to consider.
Request: Retrieve λmax flu (maximum fluorescence wavelength) measured for CCN(CC)c1ccc2cc3cc(-c4nc5ccccc5o4)c(=O)oc3cc2c1 and print it.
Response: 530 nm

---

Below, each entry is listed alongside its reported τf (fluorescence lifetime).
experiment: Measurement of fluorescence lifetime in solvents; type: physicochemical; settings: in Bu2O (dibutyl ether)
Answer format: numeric, ns implied, no suffix.

Completed entries (count: 3):
{"compound": "CCN(CC)c1ccc2cc3cc(-c4nc5ccccc5[nH]4)c(=O)oc3cc2c1 [PC6NH]", "τf (fluorescence lifetime) [ns]": 2.79}
{"compound": "CCN(CC)c1ccc2cc3cc(-c4nc5ccccc5n4C)c(=O)oc3cc2c1 [PC6NMe]", "τf (fluorescence lifetime) [ns]": 3.53}
{"compound": "CCN(CC)c1ccc2cc3cc(-c4nc5ccccc5o4)c(=O)oc3cc2c1 [PC6O]", "τf (fluorescence lifetime) [ns]": 2.83}

Request: Retrieve τf (fluorescence lifetime) measured for CCN(CC)c1ccc2cc3cc(-c4nc5ccccc5s4)c(=O)oc3cc2c1 [PC6S] and print it.
Response: 2.91

---

experiment: Measurement of maximum absorption wavelength, maximum fluorescence wavelength and fluorescence quantum yield in solvents; assay type: physicochemical; details: in MeCN
Below, each entry is listed alongside its reported λmax flu (maximum fluorescence wavelength).
Answer format: numeric, nm implied, no suffix.

Completed entries (count: 3):
{"compound": "CCN(CC)c1ccc2cc3cc(-c4nc5ccccc5n4C)c(=O)oc3cc2c1 [PC6NMe]", "assay-result": 590}
{"compound": "CCN(CC)c1ccc2cc3cc(-c4nc5ccccc5s4)c(=O)oc3cc2c1 [PC6S]", "assay-result": 625}
{"compound": "CCN(CC)c1ccc2cc3cc(-c4nc5ccccc5o4)c(=O)oc3cc2c1 [PC6O]", "assay-result": 613}

Request: Retrieve λmax flu (maximum fluorescence wavelength) measured for CCN(CC)c1ccc2cc3cc(-c4nc5ccccc5[nH]4)c(=O)oc3cc2c1 [PC6NH] and print it.
Response: 604

---

Assay: Measurement of maximum absorption wavelength, maximum fluorescence wavelength and fluorescence quantum yield in solvents
Type: physicochemical
Conditions: in Bu2O (dibutyl ether)
Method: Using a luminescent quantum yield measurement apparatus ([…]-01, manufactured by Hamamatsu Photonics K.K.), the maximum absorption wavelength (λabs/nm), the maximum fluorescence wavelength (λflu/nm), and the fluorescence quantum yield (Φf) of the compound in each solvent were measured. […]
measured-attribute: Φf (fluorescence quantum yield)
Give only the figure.

Completed entries (count: 3):
{"compound-string": "CCN(CC)c1ccc2cc3cc(-c4nc5ccccc5s4)c(=O)oc3cc2c1", "Φf (fluorescence quantum yield)": 0.88}
{"compound-string": "CCN(CC)c1ccc2cc3cc(-c4nc5ccccc5[nH]4)c(=O)oc3cc2c1", "Φf (fluorescence quantum yield)": 0.89}
{"compound-string": "CCN(CC)c1ccc2cc3cc(-c4nc5ccccc5n4C)c(=O)oc3cc2c1", "Φf (fluorescence quantum yield)": 0.67}

Here is the next item to consider.
Request: Retrieve Φf (fluorescence quantum yield) measured for CCN(CC)c1ccc2cc3cc(-c4nc5ccccc5o4)c(=O)oc3cc2c1 and print it.
Response: 0.86
